target: hmGluR1 receptor (Homo sapiens, UniProt Q13255); construct: expressed in transfected cells; host or cells: CHO; assay: IC50 Determination: intracellular calcium mobilization (FLIPR) in a CHO cell line stably expressing hmGluR1 receptor, against Quisqualate; assay type: cell-based; conditions: CHO cells expressing hmGluR1; against Quisqualate 1 μM (EC80); compounds added 10 minutes before agonist; read-out: mGluR1 IC50 rating
Sequence (Q13255 19-1194): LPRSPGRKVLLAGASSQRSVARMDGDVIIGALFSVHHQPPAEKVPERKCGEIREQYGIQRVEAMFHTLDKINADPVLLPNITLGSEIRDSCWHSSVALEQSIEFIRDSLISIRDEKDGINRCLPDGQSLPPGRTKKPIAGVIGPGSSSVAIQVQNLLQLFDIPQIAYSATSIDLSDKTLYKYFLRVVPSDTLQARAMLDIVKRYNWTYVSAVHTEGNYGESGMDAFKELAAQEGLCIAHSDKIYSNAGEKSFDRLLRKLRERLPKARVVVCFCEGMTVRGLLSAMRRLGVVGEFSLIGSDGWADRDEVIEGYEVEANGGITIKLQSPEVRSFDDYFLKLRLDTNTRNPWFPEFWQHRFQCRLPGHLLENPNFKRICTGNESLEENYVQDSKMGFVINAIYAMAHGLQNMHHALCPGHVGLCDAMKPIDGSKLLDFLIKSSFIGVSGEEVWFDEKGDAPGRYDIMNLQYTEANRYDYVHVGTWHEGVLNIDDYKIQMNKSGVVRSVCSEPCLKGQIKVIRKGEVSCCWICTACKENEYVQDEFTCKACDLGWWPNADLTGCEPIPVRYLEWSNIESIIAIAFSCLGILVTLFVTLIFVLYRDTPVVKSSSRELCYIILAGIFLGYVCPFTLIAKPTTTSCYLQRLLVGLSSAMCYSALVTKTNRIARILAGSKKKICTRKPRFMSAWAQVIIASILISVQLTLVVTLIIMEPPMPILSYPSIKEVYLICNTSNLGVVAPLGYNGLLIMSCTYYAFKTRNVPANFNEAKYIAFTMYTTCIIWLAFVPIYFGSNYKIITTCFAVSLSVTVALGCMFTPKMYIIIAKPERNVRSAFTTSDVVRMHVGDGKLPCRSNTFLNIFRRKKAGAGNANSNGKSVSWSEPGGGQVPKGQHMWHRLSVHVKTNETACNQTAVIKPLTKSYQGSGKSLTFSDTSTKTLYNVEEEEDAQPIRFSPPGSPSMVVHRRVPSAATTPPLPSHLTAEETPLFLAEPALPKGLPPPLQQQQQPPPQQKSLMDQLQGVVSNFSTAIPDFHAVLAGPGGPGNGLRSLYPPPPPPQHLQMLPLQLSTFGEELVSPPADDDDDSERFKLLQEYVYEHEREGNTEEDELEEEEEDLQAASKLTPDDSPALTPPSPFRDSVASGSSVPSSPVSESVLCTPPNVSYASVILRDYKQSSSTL
pIC50: −log10 of the molar value.
Outcome Measure: pIC50

Hey, hmGluR1 receptor (Homo sapiens, UniProt Q13255) data for C[C@@H](CO)Nc1c(Br)cnc2sc3c(=O)n(-c4ccc(Cl)cc4)cnc3c12 [Compound 37e] : pIC50 came out at < 6.00
